- testTarget: BCRP (Homo sapiens, UniProt Q9UNQ0)
- Construct: endogenous in cells; host or cells: Caco-2
- Sequence (Q9UNQ0 whole entry): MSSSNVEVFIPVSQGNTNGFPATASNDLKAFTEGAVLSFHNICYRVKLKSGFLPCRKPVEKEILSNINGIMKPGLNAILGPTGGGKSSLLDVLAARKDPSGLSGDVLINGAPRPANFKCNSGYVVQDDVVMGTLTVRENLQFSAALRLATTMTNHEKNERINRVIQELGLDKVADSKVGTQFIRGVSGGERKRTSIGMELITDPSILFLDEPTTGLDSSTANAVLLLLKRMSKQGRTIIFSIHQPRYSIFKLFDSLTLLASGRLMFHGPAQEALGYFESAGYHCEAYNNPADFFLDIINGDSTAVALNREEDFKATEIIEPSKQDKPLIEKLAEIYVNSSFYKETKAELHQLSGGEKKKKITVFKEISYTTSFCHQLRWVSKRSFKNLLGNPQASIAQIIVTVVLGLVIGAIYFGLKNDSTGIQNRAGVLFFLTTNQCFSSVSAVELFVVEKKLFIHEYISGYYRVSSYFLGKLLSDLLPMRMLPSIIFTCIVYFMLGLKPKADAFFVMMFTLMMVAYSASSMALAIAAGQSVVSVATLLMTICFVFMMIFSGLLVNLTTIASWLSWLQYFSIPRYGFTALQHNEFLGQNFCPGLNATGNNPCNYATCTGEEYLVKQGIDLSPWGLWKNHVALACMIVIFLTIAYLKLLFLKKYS
- protocolDetails: Caco-2-BCRP assay with and without Ko143
- Type: in vitro ADME
- conditionInfo: human, Caco-2, with Ko143 2 μM, Ko143 2 μM; read-out: Recovery (%) A→B
measurementKind: recovery (%)
Numbers only; they are read as %.

Query (molecule): CC(C)Nc1nnc(Nc2cc(CO)c(N3CCOCC3)c3nonc23)s1 [11a-isopropyl] ; field requested: recovery 107

* * *

- protocolDetails: In vivo pharmacokinetics in CD-1 (ICR) mice, plasma and brain, LC-MS/MS
- conditionInfo: male, CD-1 (ICR), brain, po; mouse, P.O. 5 mg/kg; read-out: Brain Tmax
measurementKind: Tmax (min)
The reply should be a number in min, with the unit left off.

What Tmax value was documented for this compound, CC(C)Nc1nnc(Nc2cc(CO)c(N3CCOCC3)c3nonc23)s1 [11a-isopropyl] ? 11.6

* * *

- testTarget: P-glycoprotein (MDR1) (Homo sapiens, UniProt P08183)
- Construct: expressed in transfected cells; host or cells: MDCKII
- Sequence (P08183 whole entry): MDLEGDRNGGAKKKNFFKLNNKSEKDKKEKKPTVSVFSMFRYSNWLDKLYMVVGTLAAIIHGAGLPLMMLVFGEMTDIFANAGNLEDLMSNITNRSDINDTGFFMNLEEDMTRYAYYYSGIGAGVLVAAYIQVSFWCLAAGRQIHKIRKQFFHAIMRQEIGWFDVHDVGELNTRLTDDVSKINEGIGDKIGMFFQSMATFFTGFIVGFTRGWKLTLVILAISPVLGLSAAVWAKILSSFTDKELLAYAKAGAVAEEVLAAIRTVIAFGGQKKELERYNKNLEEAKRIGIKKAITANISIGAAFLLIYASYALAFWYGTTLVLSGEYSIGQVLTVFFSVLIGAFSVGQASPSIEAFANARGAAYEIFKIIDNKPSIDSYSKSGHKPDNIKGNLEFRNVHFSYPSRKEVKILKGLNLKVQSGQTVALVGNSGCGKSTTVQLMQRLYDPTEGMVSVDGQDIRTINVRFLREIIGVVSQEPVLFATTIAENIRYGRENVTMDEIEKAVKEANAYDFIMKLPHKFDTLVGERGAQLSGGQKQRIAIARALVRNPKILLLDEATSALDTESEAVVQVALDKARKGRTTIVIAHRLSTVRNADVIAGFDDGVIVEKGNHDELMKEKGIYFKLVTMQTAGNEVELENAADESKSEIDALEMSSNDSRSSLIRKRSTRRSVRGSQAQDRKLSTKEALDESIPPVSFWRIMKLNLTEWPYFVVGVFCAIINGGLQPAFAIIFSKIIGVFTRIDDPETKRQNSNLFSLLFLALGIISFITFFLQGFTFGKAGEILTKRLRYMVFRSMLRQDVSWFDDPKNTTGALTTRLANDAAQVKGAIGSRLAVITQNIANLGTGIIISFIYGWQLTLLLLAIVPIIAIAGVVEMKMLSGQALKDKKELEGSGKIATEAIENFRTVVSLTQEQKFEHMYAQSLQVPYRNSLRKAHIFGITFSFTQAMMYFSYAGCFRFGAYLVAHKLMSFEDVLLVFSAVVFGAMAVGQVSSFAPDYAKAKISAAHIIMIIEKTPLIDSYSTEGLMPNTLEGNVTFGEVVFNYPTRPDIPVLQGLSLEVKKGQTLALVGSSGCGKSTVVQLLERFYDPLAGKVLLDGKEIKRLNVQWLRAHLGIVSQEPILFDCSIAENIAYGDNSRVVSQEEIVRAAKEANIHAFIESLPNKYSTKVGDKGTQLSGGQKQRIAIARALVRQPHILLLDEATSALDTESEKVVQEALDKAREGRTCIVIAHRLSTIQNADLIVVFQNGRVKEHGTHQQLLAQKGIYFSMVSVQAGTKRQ
- protocolDetails: MDR1-MDCKII permeability assay (P-glycoprotein efflux)
- Format: in vitro ADME
- conditionInfo: dog, MDCK-MDR1; b-a; second value in brackets
measurementKind: Papp B→A
Field: value (include unit after the number)

Query Papp B→A on P-glycoprotein (MDR1) (Homo sapiens, UniProt P08183) for CC(C)Nc1nnc(Nc2cc(CO)c(N3CCOCC3)c3nonc23)s1 [11a-isopropyl] 61.9 ×10⁻⁶ cm/s

Observed Papp B→A on P-glycoprotein (MDR1) (Homo sapiens, UniProt P08183) for CNc1nnc(Nc2cc(CO)c(N3CCOCC3)c3nonc23)s1 [11a] , please. 29.2 ×10⁻⁶ cm/s

Find the measured Papp B→A: item OCc1cc(Nc2nnc(N3CCCC3)s2)c2nonc2c1N1CCOCC1 [11a-pentyl] , target or system P-glycoprotein (MDR1) (Homo sapiens, UniProt P08183). 60.5 ×10⁻⁶ cm/s

* * *

- protocolDetails: In vivo pharmacokinetics in CD-1 (ICR) mice, plasma and brain, LC-MS/MS
- conditionInfo: male, CD-1 (ICR), plasma, iv; mouse, I.V. 2 mg/kg
measurementKind: Cmax (ng/mL)
Just the number please, in ng/mL, no unit attached.

Item CC(C)Nc1nnc(Nc2cc(CO)c(N3CCOCC3)c3nonc23)s1 [11a-isopropyl] has what recorded Cmax? 5160

* * *

- protocolDetails: Stability in human liver microsomes
- Type: in vitro ADME
I'd appreciate it if you could supply microsomal CLint values for the items below.
Kindly answer with a numeric value in µL/min/mg, unit omitted.

Recorded microsomal CLint for CNc1nnc(Nc2cc(CO)c(N3CCOCC3)c3nonc23)s1 [11a] , please? 12.8

# input compound: CC(C)Nc1nnc(Nc2cc(CO)c(N3CCOCC3)c3nonc23)s1 [11a-isopropyl] ; wanted: its microsomal CLint 3.6

Quick one: microsomal CLint of OCc1cc(Nc2nnc(N3CCCC3)s2)c2nonc2c1N1CCOCC1 [11a-pentyl] ? 45.5

* * *

- protocolDetails: Caco-2 permeability
- Type: in vitro ADME
- conditionInfo: human, value after the slash, head names only a-b, read-out: Permeability-Caco-2 Papp, second value of the cell (taken as b-a)
measurementKind: Papp B→A (×10⁻⁶ cm/s)
Use ×10⁻⁶ cm/s as the unit, but write only the number.

What measured Papp B→A goes with CC(C)Nc1nnc(Nc2cc(CO)c(N3CCOCC3)c3nonc23)s1 [11a-isopropyl] ? 23.6

Tell me the measured Papp B→A of OCc1cc(Nc2nnc(N3CCCC3)s2)c2nonc2c1N1CCOCC1 [11a-pentyl] , please. 14.8

* * *

- protocolDetails: Caco-2 permeability
- Assay type: in vitro ADME
- conditionInfo: human, a-b, first value of the cell
For each entry below, report its Papp A→B value.
Answer with a number only, understood to be in ×10⁻⁶ cm/s.

Could you share which Papp A→B value was measured for CC(C)Nc1nnc(Nc2cc(CO)c(N3CCOCC3)c3nonc23)s1 [11a-isopropyl] ? 6.34

So what does the record say about Papp A→B for CNc1nnc(Nc2cc(CO)c(N3CCOCC3)c3nonc23)s1 [11a] ? 10.6

Papp A→B lookup needed for OCc1cc(Nc2nnc(N3CCCC3)s2)c2nonc2c1N1CCOCC1 [11a-pentyl] , thanks. 11.8

* * *

- protocolDetails: Plasma protein binding, mouse
- Assay type: in vitro ADME
- conditionInfo: plasma, as a fraction, from Table S1, read-out: Unbound plasma fraction (fu, plasma)
measurementKind: fraction unbound
// response body must contain only the number

# query: fraction unbound of entry CC(C)Nc1nnc(Nc2cc(CO)c(N3CCOCC3)c3nonc23)s1 [11a-isopropyl] 0.204

* * *

- protocolDetails: In vivo pharmacokinetics in CD-1 (ICR) mice, plasma and brain, LC-MS/MS
- conditionInfo: male, CD-1 (ICR), plasma, iv; mouse, I.V. 2 mg/kg; read-out: Plasma Tmax
measurementKind: Tmax (min)
Express it in min; write the number only.

Query: Tmax; subject: CC(C)Nc1nnc(Nc2cc(CO)c(N3CCOCC3)c3nonc23)s1 [11a-isopropyl] 4.8

* * *

- protocolDetails: In vivo pharmacokinetics in CD-1 (ICR) mice, plasma and brain, LC-MS/MS
- conditionInfo: male, CD-1 (ICR), mouse, plasma, oral, 5 mg/kg, P.O. 5 mg/kg vs I.V. 2 mg/kg, read-out: F* (%) oral bioavailability
- Source text: Blood and brain tissues were collected at 0, 0.08, 0.25, 0.5, 1, 2, 4, and 8 h post-administration. For acute pharmacodynamic (PD) assessments, male and female 3xTg mice received oral doses of NP-11a-isopropyl at 7.5 mg/kg or 15 mg/kg, and blood and brain samples were collected 2 h after treatment.
measurementKind: bioavailability

For CC(C)Nc1nnc(Nc2cc(CO)c(N3CCOCC3)c3nonc23)s1 [11a-isopropyl] , what is its reported bioavailability? ~67.2%

* * *

- protocolDetails: Stability in human hepatocytes
- Assay type: in vitro ADME
measurementKind: hepatocyte CLint (µL/min/1e6 cells)
Dear colleague, please return just the value in µL/min/1e6 cells, with no unit written.

Return reported hepatocyte CLint; argument: OCc1cc(Nc2nnc(N3CCCC3)s2)c2nonc2c1N1CCOCC1 [11a-pentyl] 31.3

Consider the molecule shown here: CC(C)Nc1nnc(Nc2cc(CO)c(N3CCOCC3)c3nonc23)s1 [11a-isopropyl] What is its recorded hepatocyte CLint? 22

For the molecule shown here, CNc1nnc(Nc2cc(CO)c(N3CCOCC3)c3nonc23)s1 [11a] , give the reported hepatocyte CLint. 4.1

* * *

- testTarget: P-glycoprotein (MDR1) (Homo sapiens)
- Construct: expressed in transfected cells; host or cells: MDCKII
- protocolDetails: MDR1-MDCKII permeability assay (P-glycoprotein efflux)
- Assay type: in vitro ADME
- conditionInfo: dog, MDCK-MDR1; third value of the cell, not given; read-out: Permeability-MDR1-MDCKII, value after the brackets (efflux ratio)
measurementKind: efflux ratio

Dear colleague, I am looking for the recorded efflux ratio of the following compound: OCc1cc(Nc2nnc(N3CCCC3)s2)c2nonc2c1N1CCOCC1 [11a-pentyl] 42.1

* * *

- testTarget: BCRP (Homo sapiens)
- Construct: endogenous in cells; host or cells: Caco-2
- protocolDetails: Caco-2-BCRP assay with and without Ko143
- Format: in vitro ADME
- conditionInfo: human, Caco-2, with Ko143 2 μM, Ko143 2 μM; read-out: Recovery (%) B→A
measurementKind: recovery (%)
Value expressed in %; do not type the unit.

// lookup recovery for CC(C)Nc1nnc(Nc2cc(CO)c(N3CCOCC3)c3nonc23)s1 [11a-isopropyl] 98.5

* * *

- protocolDetails: Stability in mouse plasma
- Format: in vitro ADME
- conditionInfo: read-out: Stability-Plasma T1/2
Give half-life for every item shown.

Name the recorded half-life for OCc1cc(Nc2nnc(N3CCCC3)s2)c2nonc2c1N1CCOCC1 [11a-pentyl] . > 8 h

What value of measured half-life is listed for CC(C)Nc1nnc(Nc2cc(CO)c(N3CCOCC3)c3nonc23)s1 [11a-isopropyl] ? > 8 h

What half-life value was documented for this molecule, CNc1nnc(Nc2cc(CO)c(N3CCOCC3)c3nonc23)s1 [11a] ? > 8 h

* * *

- protocolDetails: Plasma and brain concentrations after acute oral treatment of 3xTg mice
- Assay type: in vivo
- conditionInfo: both sexes, mouse, brain, 15 mg/kg, P.O. 15 mg/kg, read-out: Concentration in brain, Brain Sample (single animal)
- From the text: Blood and brain tissues were collected at 0, 0.08, 0.25, 0.5, 1, 2, 4, and 8 h post-administration.
measurementKind: concentration at 2 h (ng/g)
Return type: number; implicit unit ng/g.

Field request: concentration at 2 h | item: CC(C)Nc1nnc(Nc2cc(CO)c(N3CCOCC3)c3nonc23)s1 [11a-isopropyl] 39.3

* * *

- protocolDetails: In vivo pharmacokinetics in CD-1 (ICR) mice, plasma and brain, LC-MS/MS
- conditionInfo: male, CD-1 (ICR), mouse, plasma, iv, 2 mg/kg, I.V. 2 mg/kg, read-out: Plasma t1/2 (converted)
measurementKind: half-life (min)
Give your result in min as a bare value.

For CC(C)Nc1nnc(Nc2cc(CO)c(N3CCOCC3)c3nonc23)s1 [11a-isopropyl] , what is its reported half-life? 53.4

Reference for the values: paper PMC12664493
